Target: sPLA2-X protein (Homo sapiens)
Sequence (O15496 43-165): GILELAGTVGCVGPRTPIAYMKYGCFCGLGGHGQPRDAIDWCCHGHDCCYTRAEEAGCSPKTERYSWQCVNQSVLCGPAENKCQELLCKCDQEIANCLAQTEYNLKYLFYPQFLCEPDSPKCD
Assay: sPLA2-X enzyme inhibition assay (thio-PC substrate, DTNB detection, absorbance 410 nm)
Type: biochemical
Parameters: made in house; host or cells: E. coli
Conditions: sPLA2 Type X Inhibition (IC50; nM), class symbols
TEST_READOUT: IC50

| COMPOUND | IC50 |
| --- | --- |
| NC(=O)c1[se]c2ccc(OC(F)(F)F)cc2c1-c1cccc(C2(CC(=O)O)CC2)c1 | 20 to 50 nM |

Query: Look up IC50 for this compound: NC(=O)c1[se]c2ccc(OC(F)(F)F)cc2c1-c1cccc(C2CC2C(=O)O)n1 (racemic) [Compound 55]
Result: > 200 nM

Query: Dear colleague, I am looking for the recorded IC50 of the following compound: NC(=O)c1[se]c2ccc(OC(F)(F)F)cc2c1-c1cccc(C2CC2C(=O)O)n1 (stereo not shown) [Compound 57]
Result: 50 to 200 nM

Query: Using the record for NC(=O)c1[se]c2ccc(OC(F)(F)F)cc2c1-c1cccc(CCC(=O)O)c1 , report its IC50.
Result: 50 to 200 nM

* * *

Target: recombinant human sPLA2-V enzyme (Homo sapiens)
Construct: made in house; host or cells: E. coli
Sequence (P39877 21-138): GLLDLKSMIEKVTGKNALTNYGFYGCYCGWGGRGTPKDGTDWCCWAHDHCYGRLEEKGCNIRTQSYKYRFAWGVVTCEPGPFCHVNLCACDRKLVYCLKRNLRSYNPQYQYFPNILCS
Assay: sPLA2-V enzyme inhibition assay (thio-PC substrate, DTNB detection, absorbance 410 nm)
Assay type: biochemical
Conditions: class symbols; read-out: sPLA2 Type V Inhibition (IC50; nM)
TEST_READOUT: IC50

Example compounds with recorded IC50:
| LINE_NOTATION | TEST_READOUT | EXPERIMENTAL_VALUE |
| --- | --- | --- |
| CC(=O)NCc1cccc(-n2c(C(N)=O)cc3ccc(OC(F)(F)F)cc32)n1 | IC50 | > 5000 nM |
| NC(=O)c1cc2ccc(OC(F)(F)F)cc2n1-c1cccc([C@H](N)CC(=O)O)c1 | IC50 | > 5000 nM |
| O=C(O)c1cc2ccc(OC(F)(F)F)cc2n1-c1cccc(C2(C(=O)O)CC2)n1 | IC50 | > 5000 nM |
| NC(=O)c1cc2ccc(OC(F)(F)F)cc2n1-c1cccc(C2(CC(=O)O)CCC2)c1 | IC50 | 1500 to 5000 nM |
| NC(=O)c1cc2ccc(OC(F)(F)F)cc2n1-c1cccc(N2CC(C(=O)O)C2)n1 | IC50 | 1500 to 5000 nM |
| NC(=O)c1sc2ccc(OC(F)(F)F)cc2c1-c1cccc(C2(CC(=O)O)CC2)c1 | IC50 | 500 to 1500 nM |
| NC(=O)c1cc2ccc(OC(F)(F)F)cc2n1-c1cccc(SC2(C(=O)O)CCC2)c1 | IC50 | < 500 nM |

Next compound, please.
Query: Look up IC50 for this compound: NC(=O)c1cc2ccc(OC(F)(F)F)cc2n1-c1cccc(S(=O)(=O)CC(=O)O)n1
Result: > 5000 nM

* * *

Target: recombinant human sPLA2-IIA enzyme (Homo sapiens)
Construct: made in house; host or cells: E. coli
Sequence (P14555 21-144): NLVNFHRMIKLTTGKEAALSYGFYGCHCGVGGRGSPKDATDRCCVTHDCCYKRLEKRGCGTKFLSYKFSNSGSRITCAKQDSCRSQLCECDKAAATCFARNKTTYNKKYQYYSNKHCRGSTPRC
Assay: sPLA2-IIA enzyme inhibition assay (thio-PC substrate, DTNB detection, absorbance 410 nm)
Assay type: biochemical
Conditions: sPLA2 Type IIa Inhibition (IC50; nM), class symbols
TEST_READOUT: IC50

Query: Item NC(=O)c1[se]c2ccc(OC(F)(F)F)cc2c1-c1cccc(C2CC2C(=O)O)n1 (racemic) [Compound 55] with recombinant human sPLA2-IIA enzyme (Homo sapiens) - IC50?
Result: > 1000 nM

Query: Which measured IC50 belongs to NC(=O)c1[se]c2ccc(OC(F)(F)F)cc2c1-c1cccc(C2CC2C(=O)O)n1 (centres unmarked) [Compound 57] , tested on recombinant human sPLA2-IIA enzyme (Homo sapiens)?
Result: > 1000 nM

* * *

Target: recombinant human sPLA2-V enzyme (Homo sapiens)
Construct: made in house; host or cells: E. coli
Sequence (P39877 21-138): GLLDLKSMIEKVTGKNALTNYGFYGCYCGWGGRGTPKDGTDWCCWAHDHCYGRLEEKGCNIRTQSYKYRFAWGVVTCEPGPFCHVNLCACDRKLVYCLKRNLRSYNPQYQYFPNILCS
Assay: sPLA2-V enzyme inhibition assay (thio-PC substrate, DTNB detection, absorbance 410 nm)
Type: biochemical
Details: class symbols; read-out: sPLA2 Type V Inhibition (IC50; nM)
TEST_READOUT: IC50

Query: For N[C@@H](CC(=O)O)c1cccc(-n2c(C(=O)O)cc3ccc(OC(F)(F)F)cc32)c1 [Compound 41] , what is its reported IC50?
Result: > 5000 nM

Query: Give the measured IC50 of C[C@]1(c2cccc(-n3c(C(N)=O)cc4ccc(OC(F)(F)F)cc43)c2)C[C@H]1C(=O)O (relative stereo) [Compound 38a] .
Result: < 500 nM

Query: Would you mind telling me what IC50 value was observed for COC(=O)CC1(c2cccc(-c3c(C(N)=O)sc4ccc(OC(F)(F)F)cc34)c2)CC1 [Compound 35] ?
Result: > 5000 nM

* * *

Target: recombinant human sPLA2-V enzyme (Homo sapiens, UniProt P39877)
Construct: made in house; host or cells: E. coli
Sequence (P39877 21-138): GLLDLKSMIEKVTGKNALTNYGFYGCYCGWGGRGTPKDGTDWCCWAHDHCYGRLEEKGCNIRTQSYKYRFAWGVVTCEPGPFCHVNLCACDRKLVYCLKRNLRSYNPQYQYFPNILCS
Assay: sPLA2-V enzyme inhibition assay (thio-PC substrate, DTNB detection, absorbance 410 nm)
Format: biochemical
Conditions: class symbols; read-out: sPLA2 Type V Inhibition (IC50; nM)
Listed molecules paired with reported IC50

Please review the following examples before continuing.
| MOLECULE | IC50 |
| --- | --- |
| NC(=O)c1cc2ccc(OC(F)(F)F)cc2n1-c1ccc2occ(C(=O)O)c2c1 | > 5000 nM |
| CC(C)(Cc1cccc(-n2c(C(N)=O)cc3ccc(OC(F)(F)F)cc32)n1)C(=O)O | > 5000 nM |
| NC(=O)c1cc2ccc(OC(F)(F)F)cc2n1-c1cccc(C2CC2C(=O)O)n1 (racemic) [Compound 28c] | 1500 to 5000 nM |

Query: Request the reported IC50 associated with NC(=O)c1[se]c2ccc(OC(F)(F)F)cc2c1-c1cccc(C2(CC(=O)O)CC2)c1
Result: 1500 to 5000 nM

Query: If you can, please state the reported IC50 value of NC(=O)c1cc2ccc(OC(F)(F)F)cc2n1-c1cccc([C@@H]2C[C@H]2C(=O)O)n1 (single isomer, unassigned) [Compound 28b] .
Result: > 5000 nM

Query: What value of IC50 has been reported for the following molecule? NC(=O)c1sc2ccc(OC(F)(F)F)cc2c1-c1ccc2c(c1)C(CC(=O)O)CO2 (stereo not shown)
Result: > 5000 nM

Query: Return reported IC50; argument: NC(=O)c1cc2ccc(OC(F)(F)F)cc2n1-c1cccc(CC2(C(=O)O)CCC2)c1
Result: 500 to 1500 nM

Query: Requested read-out: IC50. Entry: NC(=O)c1cc2ccc(OC(F)(F)F)cc2n1-c1cccc(N2CC[C@@H]2C(=O)O)n1
Result: 500 to 1500 nM

Query: // IC50 lookup, key: NC(=O)c1cc2ccc(OC(F)(F)F)cc2n1-c1cccc(CC2(C(=O)O)CC2)c1
Result: > 5000 nM

Query: IC50 for NC(=O)c1cc2ccc(OC(F)(F)F)cc2n1-c1cccc(C2CC2C(=O)O)c1 (racemic) [Compound 15] ?
Result: > 5000 nM

Query: // lookup IC50 for CS(=O)(=O)NCc1cccc(-n2c(C(N)=O)cc3ccc(OC(F)(F)F)cc32)n1
Result: > 5000 nM

Query: Please look up its IC50: CC(C)(C)OC(=O)NC1(c2cccc(-n3c(C(N)=O)cc4ccc(OC(F)(F)F)cc43)n2)CCC1
Result: > 5000 nM

Query: Which IC50 reading was recorded for the molecule CC(C)(Cc1cccc(-n2c(C(N)=O)cc3ccc(OC(F)(F)F)cc32)c1)C(=O)O ?
Result: 1500 to 5000 nM

Query: Given the entry COc1cnc2cc(C(N)=O)n(-c3cccc(C4CC4C(=O)O)n3)c2c1 (single isomer, unassigned) , report its measured IC50.
Result: > 5000 nM

Query: GET /values?readout=IC50&item= NC(=O)c1cc2ccc(OC(F)(F)F)cc2n1-c1cccc(C2(NCC(=O)O)CCC2)n1
Result: > 5000 nM

Query: For the molecule NC(=O)c1cc2ccc(OC(F)(F)F)cc2n1-c1ccc2oc(C(=O)O)cc2c1 , what IC50 is on record?
Result: > 5000 nM
